The reader will find reported mortality at 250 ppm values listed item by item below.
Tested on: Musca domestica
Assay: Insecticidal test, Musca domestica (houseflies - adults), contact
Format: in vivo
Conditions: 24 h, 250 ppm, cotton wool/sugar, 1 day, read-out: grading of mortality, MD
reported_metric: mortality at 250 ppm

{"compound": "CCOc1ccc(C(O)(COCc2ccc(F)c(Oc3ccccc3)c2)C(F)(F)F)cc1 (stereo not drawn)", "result": "50 to 79%"}
{"compound": "CCOc1ccc(C(Cl)(COCc2c(F)c(F)c(C)c(F)c2F)C(F)(F)F)cc1 (stereo not drawn)", "result": "< 50%"}
{"compound": "CCOc1ccc(C(COCc2cccc(Oc3ccc(Br)cc3)c2)C(F)(F)F)cc1 (stereo not drawn)", "result": "80 to 100%"}
{"compound": "CCOc1ccc(C(O)(COCc2cccc(Oc3ccccc3)c2)C(F)(F)F)cc1 (stereo not drawn)", "result": "< 50%"}
{"compound": "CCOc1ccc(C(COCc2ccc(F)c(Oc3ccccc3)c2)(OC(C)=O)C(F)(F)F)cc1 (stereo not drawn)", "result": "< 50%"}
{"compound": "CCOc1ccc(C(F)(COCc2ccc(F)c(Oc3ccccc3)c2)C(F)(F)F)cc1 (stereo not drawn)", "result": "80 to 100%"}
{"compound": "Fc1ccc(COCC(c2ccc3c(c2)CCC3)C(F)(F)F)cc1Oc1ccccc1 (stereo not drawn)", "result": "80 to 100%"}
{"compound": "CCOc1ccc(C(Cl)(COCc2coc(Cc3ccccc3)c2)C(F)(F)F)cc1 (stereo not drawn)", "result": "< 50%"}
{"compound": "CCOc1ccc(C(COCc2ccc(F)c(Oc3ccccc3)c2)(OC)C(F)(F)F)cc1 (stereo not drawn)", "result": "< 50%"}

* * *

Test system: Musca domestica
Assay: Insecticidal test, Musca domestica (houseflies - adults), contact
Type: in vivo
Conditions: 24 h, 500 ppm, cotton wool/sugar, 1 day, read-out: grading of mortality, MD
reported_metric: mortality at 500 ppm

{"compound": "CCOc1ccc(C(F)(COCc2cccc(Oc3ccccc3)n2)C(F)(F)F)cc1 (stereo not shown) [Compound 76]", "reported_metric": "mortality at 500 ppm", "result": "80 to 100%"}
{"compound": "Cc1ccc(C(COCc2cccc(Oc3ccccc3)c2)C(F)(F)F)cc1 (stereo not shown) [Compound 22]", "reported_metric": "mortality at 500 ppm", "result": "80 to 100%"}
{"compound": "CCCc1ccc(C(Cl)(COCc2ccc(F)c(Oc3ccccc3)c2)C(F)(F)F)cc1 (stereo not shown) [Compound 53]", "reported_metric": "mortality at 500 ppm", "result": "80 to 100%"}
{"compound": "CCOc1ccc([C@H](CO[C@H](C)c2cccc(Oc3ccccc3)c2)C(F)(F)F)cc1 (racemic) [Compound 256]", "reported_metric": "mortality at 500 ppm", "result": "80 to 100%"}
{"compound": "CCOc1c(F)cc(C(COCc2cccc(Oc3ccc(Cl)cc3)c2)C(F)(F)F)cc1F (racemic) [Compound 165]", "reported_metric": "mortality at 500 ppm", "result": "80 to 100%"}
{"compound": "COc1ccc(C(COCc2cccc(Oc3ccccc3)c2)C(F)(F)F)cc1 (stereo not shown) [Compound 30]", "reported_metric": "mortality at 500 ppm", "result": "80 to 100%"}
{"compound": "OC(COCc1cccc(Oc2ccccc2)c1)(c1ccc2c(c1)OCO2)C(F)(F)F (stereo not shown) [Compound 128]", "reported_metric": "mortality at 500 ppm", "result": "50 to 79%"}
{"compound": "OC(COCc1ccc(F)c(Oc2ccccc2)c1)(c1ccc(Cl)cc1)C(F)(F)F (stereo not shown) [Compound 126]", "reported_metric": "mortality at 500 ppm", "result": "< 50%"}
{"compound": "CCOc1ccc(C(COC(c2cccc(Oc3ccccc3)c2)C(F)(F)F)C(F)(F)F)cc1 (racemic) [Compound 264]", "reported_metric": "mortality at 500 ppm", "result": "< 50%"}
{"compound": "CCOc1ccc(C(COCc2cccc(Cc3ccccc3)c2)C(F)(F)F)cc1 (stereo not shown) [Compound 12]", "reported_metric": "mortality at 500 ppm", "result": "80 to 100%"}
